test_system: Carbonic anhydrase 1 (Homo sapiens, UniProt P00915)
Sequence (P00915 whole entry): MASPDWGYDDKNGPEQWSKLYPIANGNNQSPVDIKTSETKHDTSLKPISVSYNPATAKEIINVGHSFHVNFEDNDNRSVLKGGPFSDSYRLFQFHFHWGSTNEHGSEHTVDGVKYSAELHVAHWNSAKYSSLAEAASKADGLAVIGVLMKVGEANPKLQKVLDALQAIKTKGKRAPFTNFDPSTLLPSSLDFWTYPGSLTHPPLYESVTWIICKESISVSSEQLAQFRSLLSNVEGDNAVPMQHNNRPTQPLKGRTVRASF
value_type: Ki (nM)
Please state the figure in nM; there is no need to write the unit.

Below, each entry is followed by its recorded Ki result.
[
  {
    "record_smiles": "CC(C)c1cc(-c2ccccc2)cc(C(C)C)[n+]1CC(=O)Nc1ccc(S(N)(=O)=O)cc1Cl",
    "units_of_measure": "nM",
    "Ki": 600
  },
  {
    "record_smiles": "Cc1cc(C)[n+](CC(=O)Nc2ccc(S(N)(=O)=O)cc2F)c(C)c1",
    "units_of_measure": "nM",
    "Ki": 750
  },
  {
    "record_smiles": "Cc1cc(-c2ccccc2)cc(C)[n+]1CC(=O)Nc1nccc(Nc2ccc(S(N)(=O)=O)cc2)n1",
    "units_of_measure": "nM",
    "Ki": 35
  },
  {
    "record_smiles": "CC(C)c1cc(-c2ccccc2)cc(C(C)C)[n+]1CC(=O)Nc1ccc(S(=O)(=O)Nc2cccc(S(N)(=O)=O)c2)cc1",
    "units_of_measure": "nM",
    "Ki": 53
  }
]

Next up:
Give Ki (Carbonic anhydrase 1 (Homo sapiens, UniProt P00915)) of the following molecule: `CC(C)c1cc(-c2ccccc2)cc(C(C)C)[n+]1CC(=O)Nc1ccc(S(=O)(=O)Nc2nnc(S(N)(=O)=O)s2)cc1` 14

====

test_system: Carbonic anhydrase 1 (Homo sapiens)
pKi: −log10 of the molar value.
Given measured pKi, output true if it is greater than or equal to 6 and false if not.

For orientation, consider the following solved cases.
[
  {
    "record_smiles": "Cc1cc(C)[n+](CC(=O)/N=c2/sc(S(N)(=O)=O)nn2C)c(C)c1",
    "category": "true"
  },
  {
    "record_smiles": "CC(C)c1cc(-c2ccccc2)cc(C(C)C)[n+]1CC(=O)NNc1ccc(S(N)(=O)=O)cc1",
    "category": "false"
  },
  {
    "record_smiles": "CC(C)c1cc(-c2ccccc2)cc(C(C)C)[n+]1CC(=O)/N=c1/sc(S(N)(=O)=O)nn1C.[O-][Cl+3]([O-])([O-])[O-]",
    "category": "true"
  },
  {
    "record_smiles": "Cc1cc(-c2ccccc2)cc(C)[n+]1CC(=O)NNc1ccc(S(N)(=O)=O)cc1",
    "category": "false"
  },
  {
    "record_smiles": "Cc1cc(C)[n+](CC(=O)NCCC(=O)Nc2nnc(S(N)(=O)=O)s2)c(C)c1",
    "category": "true"
  }
]

Hello, I need to know if `Cc1cc(C)[n+](CC(=O)Oc2ccc3nc(S(N)(=O)=O)sc3c2)c(C)c1` has measured pKi not below 6. Thanks! true

pKi >= 6 for `CCc1cc(-c2ccccc2)cc(CC)[n+]1CC(=O)Nc1nccc(Nc2ccc(S(N)(=O)=O)cc2)n1` ? true

====

Carbonic anhydrase 1 (Homo sapiens): reported pKi for various molecules.
Keep it numeric: pKi is minus log10 of the concentration in mol/L.

Recorded pKi, per entry:
[
  {
    "record_smiles": "Cc1cc(-c2ccccc2)cc(C)[n+]1CC(=O)Oc1ccc2nc(S(N)(=O)=O)sc2c1",
    "pKi": 7.96
  },
  {
    "record_smiles": "Cc1cc(C)[n+](CC(=O)Nc2ccccc2S(N)(=O)=O)c(C)c1",
    "pKi": 4.49
  },
  {
    "record_smiles": "CCc1cc(-c2ccccc2)cc(CC)[n+]1CC(=O)Nc1ccc(S(N)(=O)=O)cc1Br",
    "pKi": 6.21
  }
]

Could you share which pKi value was measured for `CC(C)c1cc(-c2ccccc2)cc(C(C)C)[n+]1CC(=O)Nc1c(S(N)(=O)=O)cc(S(N)(=O)=O)c(Cl)c1Cl` ? 6.33

// returns reported pKi for input `CCc1cc(-c2ccccc2)cc(CC)[n+]1CC(=O)Oc1ccc2nc(S(N)(=O)=O)sc2c1` 7.96

What value of measured pKi is listed for `Cc1cc(-c2ccccc2)cc(C)[n+]1CC(=O)Nc1ccc(S(=O)(=O)Nc2nnc(S(N)(=O)=O)s2)cc1` ? 8.00

What does the record list as pKi for `CCc1cc(-c2ccccc2)cc(CC)[n+]1CC(=O)OCCc1ccc(S(N)(=O)=O)cc1` ? 5.82

What measured pKi goes with `Cc1cc(C)[n+](CC(=O)NCCc2ccc(S(N)(=O)=O)cc2)c(C)c1` ? 6.09

Could you tell me which pKi is on file for `CCc1cc(-c2ccccc2)cc(CC)[n+]1CC(=O)Nc1ccc(S(N)(=O)=O)cc1I` ? 6.21
